Field: Melting temperature (Tm) shift. Provide a value for each of the molecules that follow.
target: PAK4 Catalytic Domain+PBD (Homo sapiens); construct: for 8, we also made a longer version containing one or more additional domains; His-tag; made in house; host or cells: Escherichia coli; assay: Differential Scanning Fluorimetry (DSF) Tm shift; assay type: binding; details: 2 µM protein, 10 µM inhibitor, average of 3 experiments, each in duplicate
Sequence (O96013 whole entry, the tested form may be a part): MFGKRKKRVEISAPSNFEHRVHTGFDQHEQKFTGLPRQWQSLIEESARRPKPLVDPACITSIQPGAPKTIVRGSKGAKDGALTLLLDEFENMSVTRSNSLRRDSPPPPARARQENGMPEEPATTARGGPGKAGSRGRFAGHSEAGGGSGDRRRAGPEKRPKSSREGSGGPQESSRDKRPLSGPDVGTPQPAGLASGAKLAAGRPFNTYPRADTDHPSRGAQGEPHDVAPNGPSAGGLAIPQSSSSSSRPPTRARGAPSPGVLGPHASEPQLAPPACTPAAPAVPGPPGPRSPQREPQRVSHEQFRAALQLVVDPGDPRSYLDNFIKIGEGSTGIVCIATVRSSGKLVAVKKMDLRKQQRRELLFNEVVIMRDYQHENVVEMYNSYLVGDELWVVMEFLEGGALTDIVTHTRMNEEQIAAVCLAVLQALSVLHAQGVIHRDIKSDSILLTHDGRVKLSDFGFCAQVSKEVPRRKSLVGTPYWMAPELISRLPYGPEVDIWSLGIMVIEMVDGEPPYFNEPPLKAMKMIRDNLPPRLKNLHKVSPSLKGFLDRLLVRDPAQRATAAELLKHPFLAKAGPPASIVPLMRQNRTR
Give bare numbers, in degrees Celcius.

Solved cases (2 shown):
CN(C)CCCn1cc(C2=C(c3c[nH]c4ccccc34)C(=O)NC2=O)c2ccccc21 [Bisindolylmaleimide I]: 0.6
Cc1nc(N)sc1-c1ccnc(Nc2cccc([N+](=O)[O-])c2)n1: 2.0

Next molecule, please.
Prompt: Entry under review: CCN(CC)CCNC(=O)c1c(C)[nH]c(/C=C2\C(=O)Nc3ccc(Cl)cc32)c1C . Reported Melting temperature (Tm) shift?
Response: 2.0
